Assay: Far-UV circular dichroism, helical content of T-domain peptides
Assay type: physicochemical
Conditions: total number in peptide excluding tags minus residues in helices
EXPERIMENTAL ENDPOINT: no. of residues, unordered

MOLECULE	MEASURED
colicin E1 T-domain peptide T57–120 (domain or fragment, UniProt P02978 57-120, looked up) WSTAQLKKTQAEQAARAKAAAEAQAKAKANRDALTQRLKDIVNEALRHNASRTPSATELAHANN	20 residues

Now for the molecule whose no. of residues, unordered we want.
Q) Returns the measured no. of residues, unordered for the input molecule. Input: 41–140 ^b: colicin E1 T-domain peptide, residues 41–140 (peptide, UniProt P02978 41-140, looked up, fragment) GGSKSESSAAIHATAKWSTAQLKKTQAEQAARAKAAAEAQAKAKANRDALTQRLKDIVNEALRHNASRTPSATELAHANNAAMQAEDERLRLAKAEEKAR
A) 35 residues

Every entry's value here was drawn from paper PMC5366289.
